# target or system: T1, CpCdc13AB heterodimer: His6-SUMO-Cdc13A + GST-Cdc13B-FLAG (Candida parapsilosis, UniProt G8B7U9;G8B5A5 1-456;1-475)
# T1 sequence 1: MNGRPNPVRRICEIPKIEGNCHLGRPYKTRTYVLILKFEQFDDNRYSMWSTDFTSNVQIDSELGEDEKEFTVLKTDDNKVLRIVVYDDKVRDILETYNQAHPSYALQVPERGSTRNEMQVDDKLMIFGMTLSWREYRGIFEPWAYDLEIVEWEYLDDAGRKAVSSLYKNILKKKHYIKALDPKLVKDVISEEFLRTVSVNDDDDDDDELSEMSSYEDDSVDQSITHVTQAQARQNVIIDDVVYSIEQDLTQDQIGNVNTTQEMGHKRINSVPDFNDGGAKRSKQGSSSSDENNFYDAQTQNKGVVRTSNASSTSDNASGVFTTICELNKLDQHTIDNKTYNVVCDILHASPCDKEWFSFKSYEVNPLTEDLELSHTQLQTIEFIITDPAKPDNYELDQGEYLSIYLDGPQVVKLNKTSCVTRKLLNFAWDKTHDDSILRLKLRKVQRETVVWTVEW
# T1 sequence 2: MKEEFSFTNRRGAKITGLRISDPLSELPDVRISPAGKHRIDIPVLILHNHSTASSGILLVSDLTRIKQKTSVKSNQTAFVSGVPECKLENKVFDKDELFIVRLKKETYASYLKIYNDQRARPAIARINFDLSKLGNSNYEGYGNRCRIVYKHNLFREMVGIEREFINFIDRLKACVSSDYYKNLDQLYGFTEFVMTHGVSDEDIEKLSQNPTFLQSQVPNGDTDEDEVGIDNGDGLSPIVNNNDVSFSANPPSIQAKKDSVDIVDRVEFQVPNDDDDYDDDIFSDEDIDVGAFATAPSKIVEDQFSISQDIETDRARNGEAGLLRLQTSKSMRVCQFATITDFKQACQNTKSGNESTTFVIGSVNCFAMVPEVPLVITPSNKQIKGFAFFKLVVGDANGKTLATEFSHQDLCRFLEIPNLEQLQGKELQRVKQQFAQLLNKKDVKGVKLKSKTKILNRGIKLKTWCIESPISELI
# test details: EMSA; EMSA: 50 mM Tris-HCl pH 7.5, 2 mM MgCl2, 10 mM NaCl, 1 mM spermidine, 1 mM DTT, 200 ng/ul poly(dI-dC), 5% glycerol, 25 C 60 min; crosslinking: same buffer, 22 C 1 h, then UV on ice 20 min
# particulars: protein: recombinant; tags: His6-SUMO (A); GST and FLAG (B); copies: 1;1
observable: Kd

Prompt line: Data request, read-out Kd, for ATTATACTGAGGTCCGGATGTTG (ssDNA) [CpG1]
Response line: ~10 nM
